These entries and their values trace back to ChEMBL document CHEMBL3621046.

So I've got a bunch of molecules here, and I need their IC50 values.
target: Enoyl-[acyl-carrier-protein] reductase [NADPH] FabI (Staphylococcus aureus, UniProt Q6GI75)
Hi, when you answer, please include the unit after the number. Thanks!

• O=c1cc(COc2ccccc2)occ1Oc1ccc(Cl)cc1Cl = 680 nM
• O=c1cc(COc2ccccc2)n(C2CC2)cc1Oc1cccc(Cl)c1Cl = 1500 nM
• Cc1cc(Cl)ccc1Oc1coc(/C=C/c2cccs2)cc1=O = 4570 nM

State recorded IC50 for all listed molecules.
1. Cc1ccc(Oc2coc(/C=C/c3ccoc3)cc2=O)c(C)c1
2. Cc1cc(Cl)ccc1Oc1coc(/C=C/c2ccccc2)cc1=O
3. O=c1cc(COc2ccccc2)[nH]cc1Oc1cccc([N+](=O)[O-])c1Cl
4. O=c1cc(COc2ccccc2)occ1Oc1cccc(Cl)c1Cl

Response:
1. 2290 nM
2. 4880 nM
3. 11700 nM
4. 1250 nM

----------
Sequence of the target: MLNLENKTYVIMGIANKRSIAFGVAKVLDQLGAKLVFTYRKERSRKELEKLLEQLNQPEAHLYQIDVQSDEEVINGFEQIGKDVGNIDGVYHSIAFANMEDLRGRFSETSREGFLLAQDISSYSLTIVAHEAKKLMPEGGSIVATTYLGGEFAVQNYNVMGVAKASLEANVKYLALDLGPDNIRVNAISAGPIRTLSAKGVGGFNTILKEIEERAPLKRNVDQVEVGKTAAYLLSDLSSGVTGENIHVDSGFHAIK
Give IC50 for every item shown.
One number for each entry, in µM.

Previously resolved entries follow.
- Cc1ccc(Oc2c[nH]c(COc3ccccc3)cc2=O)c(C)c1: 1.14
- CCCCn1cc(Oc2ccc(C)cc2C)c(=O)cc1COc1ccccc1: 1

Please turn your attention to the following entry.
Query: // IC50 lookup, key: O=c1cc(/C=C/c2ccoc2)occ1Oc1c(Cl)cccc1Cl
Response: 4.12
